molecular target: Cyclic nucleotide-gated channel alpha-1 (Bos taurus, UniProt Q00194); test: Apparent dissociation constant against Cyclic nucleotide gated channel alpha 1 at +40 mV
# note: exactly 0.07 µM is not below, so it is 0.0; use 1.0 for Kd strictly under it

[[record]]
structure = "CCCCNc1ccc(C(=O)OCC[N+](C)(C)CCCN)cc1"
assigned_label = 0.0

[[record]]
structure = "CCCCNc1ccc(C(=O)OCC[N+](C)(C)CCCNCCCN)cc1"
assigned_label = 1.0

[[record]]
structure = "CN(C)CCOC(=O)c1ccc(N)cc1"
assigned_label = 0.0

[[record]]
structure = "CC(=O)NCCCCNc1ccc(C(=O)OCCN(C)C)cc1"
assigned_label = 0.0

[[record]]
structure = "CCCCNc1ccc(C(=O)OCC[N+](C)(C)CCCC)cc1"
assigned_label = 0.0

[[record]]
structure = "CN(C)CCOC(=O)c1ccc(NCCCCN)cc1"
assigned_label = 0.0


====

Biological target: Cyclic nucleotide-gated channel alpha-1 (Bos taurus)
Sequence (Q00194 whole entry): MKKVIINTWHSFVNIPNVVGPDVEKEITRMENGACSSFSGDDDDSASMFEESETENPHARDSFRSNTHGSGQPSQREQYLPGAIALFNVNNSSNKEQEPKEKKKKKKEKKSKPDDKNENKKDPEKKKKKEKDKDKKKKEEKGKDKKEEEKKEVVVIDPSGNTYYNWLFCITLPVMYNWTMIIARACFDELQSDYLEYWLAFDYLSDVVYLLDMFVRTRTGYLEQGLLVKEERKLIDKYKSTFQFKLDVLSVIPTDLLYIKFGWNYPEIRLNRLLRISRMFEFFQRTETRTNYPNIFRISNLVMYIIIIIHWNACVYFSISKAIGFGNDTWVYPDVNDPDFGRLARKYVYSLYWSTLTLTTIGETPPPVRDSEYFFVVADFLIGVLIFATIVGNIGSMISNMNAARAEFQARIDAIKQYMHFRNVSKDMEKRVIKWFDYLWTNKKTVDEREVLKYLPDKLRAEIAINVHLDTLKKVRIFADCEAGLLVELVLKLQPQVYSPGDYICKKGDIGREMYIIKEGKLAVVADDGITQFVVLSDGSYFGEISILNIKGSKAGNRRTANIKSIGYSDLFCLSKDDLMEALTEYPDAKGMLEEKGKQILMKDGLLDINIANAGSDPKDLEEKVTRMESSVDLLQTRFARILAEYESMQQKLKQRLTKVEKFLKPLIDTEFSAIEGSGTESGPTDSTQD
Test: Apparent dissociation constant against Cyclic nucleotide gated channel alpha 1 at 0 mV
# note: exactly 4000 µM is not below, so it is no; use yes for Kd strictly under it

[[record]]
structure = "CCCCNc1ccc(C(=O)OCC[N+](C)(C)CCCC)cc1"
assigned_label = "yes"

[[record]]
structure = "CCCCNc1ccc(C(=O)OCC[N+](C)(C)CCCN)cc1"
assigned_label = "yes"

[[record]]
structure = "CCCCNc1ccc(C(=O)OCC[N+](C)(C)CCCNCCCN)cc1"
assigned_label = "yes"

[[record]]
structure = "CN(C)CCOC(=O)c1ccc(NCCCCN)cc1"
assigned_label = "yes"

[[record]]
structure = "CN(C)CCOC(=O)c1ccc(N)cc1"
assigned_label = "no"

